IC50 overview
Tested on: P-Akt (S473)
assay_notes: Cell based AlphaLISA assay, inhibition of P-Akt (S473) (mTORC2 substrate phosphorylation) in MDA-MB-468 cells
condition_summary: Homo sapiens, MDA-MB-468, 4 h, AlphaLISA, two to four hours at 37° C., read-out: pIC50 for Inhibition of mTORC1 and mTORC2 Substrate Phosphorylation, p-AKT 1/2/3 -(S473) (converted)

Return the recorded IC50 value; entry: `CO[C@H]1C[C@@H]2CC[C@@H](C)[C@@](O)(O2)C(=O)C(=O)N2CCCC[C@H]2C(=O)O[C@H]([C@H](C)C[C@@H]2CC[C@@H](OCCCCc3cn(CCOCCOCCOCCOCCOCCOCCOCCOCCC(=O)NCCS(=O)(=O)c4ccc(C(=O)N5CCOc6ccc(-c7ccc(N)nc7)cc6C5)c(C)c4F)nn3)[C@H](OC)C2)CC(=O)[C@H](C)/C=C(\C)[C@@H](O)[C@@H](OC)C(=O)[C@H](C)C[C@H](C)/C=C/C=C/C=C/1C`
3.16 to 31.6 nM

Further cases:
Give recorded IC50. CO[C@H]1C[C@@H]2CC[C@@H](C)[C@@](O)(O2)C(=O)C(=O)N2CCCC[C@H]2C(=O)O[C@H]([C@H](C)C[C@@H]2CC[C@H](n3nncc3-c3cccc(-c4cnc(N5CCN(Cc6cn(CCOCCOCCOCCOCCOCCC(=O)NCCCCn7nc(-c8ccc9oc(N)nc9c8)c8c(N)ncnc87)nn6)C(CO)C5)nc4)c3)[C@H](OC)C2)CC(=O)[C@H](C)/C=C(\C)[C@@H](O)[C@@H](OC)C(=O)[C@H](C)C[C@H](C)/C=C/C=C/C=C/1C (some centres unmarked)
3.16 to 31.6 nM

----------
Listing: IC50 of selected compounds
Tested on: P-Akt (S473)
assay_notes: Cell based AlphaLISA assay, inhibition of P-Akt (S473) (mTORC2 substrate phosphorylation) in MDA-MB-468 cells
condition_summary: Homo sapiens, MDA-MB-468, 4 h, AlphaLISA, two to four hours at 37° C., read-out: pIC50 for Inhibition of mTORC1 and mTORC2 Substrate Phosphorylation, p-AKT 1/2/3 -(S473) (converted)

Example results:
Report measured IC50; entry is `CO/N=C1/C[C@@H]([C@H](C)C[C@@H]2CC[C@H](n3cc(CCCC(=O)NCCOCCOCCOCCC(=O)NCCOCCOCCOCCC(=O)NCCCCn4nc(-c5cc6cc(O)ccc6[nH]5)c5c(N)ncnc54)nn3)[C@H](OC)C2)OC(=O)[C@@H]2CCCCN2C(=O)C(=O)[C@]2(O)O[C@@H](CC[C@H]2C)C[C@H](OC)/C(C)=C/C=C/C=C/[C@@H](C)C[C@@H](C)C(=O)[C@H](OC)[C@H](O)/C(C)=C/[C@H]1C`
> 1 µM

Quote IC50 reported for `CO[C@H]1C[C@@H]2CC[C@@H](C)[C@@](O)(O2)C(=O)C(=O)N2CCCC[C@H]2C(=O)O[C@H]([C@H](C)C[C@@H]2CC[C@@H](OCCCCc3cn(CCOCCOCCOCCOCCOCCOCCOCCOCCC(=O)NCCCCn4nc(-c5ccc6oc(N)nc6c5)c5c(N)ncnc54)nn3)[C@H](OC)C2)C[C@@H](OC)[C@H](C)/C=C(\C)[C@@H](O)[C@@H](OC)C(=O)[C@H](C)C[C@H](C)/C=C/C=C/C=C/1C` please.
0.00316 to 0.0316 µM

Shift focus to the following entry.
Tell me IC50 reported for `CO[C@H]1C[C@@H]2CC[C@@H](C)[C@@](O)(O2)C(=O)C(=O)N2CCCC[C@H]2C(=O)O[C@H]([C@H](C)C[C@@H]2CC[C@@H](OCCCCc3cn(CCOCCOCCOCCOCCNC(=O)CCC(=O)NCCCCn4nc(-c5ccc6oc(N)nc6c5)c5c(N)ncnc54)nn3)[C@H](OC)C2)CC(=O)[C@H](C)/C=C(\C)[C@@H](O)[C@@H](OC)C(=O)[C@H](C)C[C@H](C)/C=C/C=C/C=C/1C`
0.00316 to 0.0316 µM

The measured values listed here are drawn from patent US20230093861A1.
